- study.system: glutathione S-transferase (GST)-fusion human ERK2 protein (Homo sapiens)
- Construct: purchased Carna Biosciences, Inc; host or cells: E. coli expression system
- Sequence (P28482 whole entry, the tested form may be a part): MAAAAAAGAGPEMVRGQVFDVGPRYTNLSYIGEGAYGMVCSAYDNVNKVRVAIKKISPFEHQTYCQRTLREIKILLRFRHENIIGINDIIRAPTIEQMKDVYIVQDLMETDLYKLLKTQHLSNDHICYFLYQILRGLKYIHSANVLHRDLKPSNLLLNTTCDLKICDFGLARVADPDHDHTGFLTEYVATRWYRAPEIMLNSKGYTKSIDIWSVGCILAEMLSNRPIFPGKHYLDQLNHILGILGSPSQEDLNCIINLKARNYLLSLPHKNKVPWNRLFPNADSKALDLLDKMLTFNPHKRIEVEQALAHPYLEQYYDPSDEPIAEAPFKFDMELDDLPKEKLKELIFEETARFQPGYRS
- test.details: ERK2 enzyme assay (LabChip mobility shift)
- Format: biochemical
- condition.info: IC50 class; 2 nM ERK2, 4.25 μM FL-Peptide 8, 43 μM ATP; read-out: ERK2 Inhibitory Activity
- Protocol: Evaluation of the ERK2 inhibitory activity of the compound of the present invention was carried out according to the method as described below. For the ERK2 enzyme assay, a glutathione S-transferase (GST)-fusion human ERK2 protein (Carna Biosciences, Inc.) produced using an E. coli expression system was used. […] The inhibitory activity of the compounds was evaluated using an IC50 (50% inhibitory concentration). The IC50 was calculated using XLfit (IDBS).
result.type: IC50

[[record]]
smiles_notation = "CC(C)NC(=O)Nc1ccc2ncc(-c3cn[nH]c3)cc2n1"
study_system = "glutathione S-transferase (GST)-fusion human ERK2 protein (Homo sapiens)"
result = "< 100 nM"

[[record]]
smiles_notation = "CC(C)(C)NC(=O)Nc1ccc2ncc(-c3cnn(CCCN4CCOCC4)c3)cc2n1"
study_system = "glutathione S-transferase (GST)-fusion human ERK2 protein (Homo sapiens)"
result = "100 to 1000 nM"

[[record]]
smiles_notation = "O=C(Nc1ccc2ncc(-c3cn[nH]n3)cc2n1)NC1CCCC1"
study_system = "glutathione S-transferase (GST)-fusion human ERK2 protein (Homo sapiens)"
result = "< 100 nM"

[[record]]
smiles_notation = "COc1cc(-c2cnc3ccc(NC(=O)NC4CCCC4)nc3c2)cnc1OC"
study_system = "glutathione S-transferase (GST)-fusion human ERK2 protein (Homo sapiens)"
result = "100 to 1000 nM"

[[record]]
smiles_notation = "O=C(NCC1CCCC1)Nc1ccc2ncc(-c3cn[nH]c3)cc2n1"
study_system = "glutathione S-transferase (GST)-fusion human ERK2 protein (Homo sapiens)"
result = "< 100 nM"

[[record]]
smiles_notation = "S=C(Nc1ccc2ncc(-c3cnn(CCN4CCOCC4)c3)cc2n1)NC1CCCC1"
study_system = "glutathione S-transferase (GST)-fusion human ERK2 protein (Homo sapiens)"
result = "< 100 nM"

[[record]]
smiles_notation = "Cc1nc2ccc(NC(=O)NC3CCCC3)nc2cc1-c1cnn(C)c1"
study_system = "glutathione S-transferase (GST)-fusion human ERK2 protein (Homo sapiens)"
result = "> 10000 nM"


* * *

Here, each record is paired with measured pIC50 data.
- study.system: human PI3Kα protein (Homo sapiens, UniProt P42336)
- Construct: purchased Carna Biosciences, Inc; host or cells: Baculovirus expression system
- Sequence (P42336 whole entry): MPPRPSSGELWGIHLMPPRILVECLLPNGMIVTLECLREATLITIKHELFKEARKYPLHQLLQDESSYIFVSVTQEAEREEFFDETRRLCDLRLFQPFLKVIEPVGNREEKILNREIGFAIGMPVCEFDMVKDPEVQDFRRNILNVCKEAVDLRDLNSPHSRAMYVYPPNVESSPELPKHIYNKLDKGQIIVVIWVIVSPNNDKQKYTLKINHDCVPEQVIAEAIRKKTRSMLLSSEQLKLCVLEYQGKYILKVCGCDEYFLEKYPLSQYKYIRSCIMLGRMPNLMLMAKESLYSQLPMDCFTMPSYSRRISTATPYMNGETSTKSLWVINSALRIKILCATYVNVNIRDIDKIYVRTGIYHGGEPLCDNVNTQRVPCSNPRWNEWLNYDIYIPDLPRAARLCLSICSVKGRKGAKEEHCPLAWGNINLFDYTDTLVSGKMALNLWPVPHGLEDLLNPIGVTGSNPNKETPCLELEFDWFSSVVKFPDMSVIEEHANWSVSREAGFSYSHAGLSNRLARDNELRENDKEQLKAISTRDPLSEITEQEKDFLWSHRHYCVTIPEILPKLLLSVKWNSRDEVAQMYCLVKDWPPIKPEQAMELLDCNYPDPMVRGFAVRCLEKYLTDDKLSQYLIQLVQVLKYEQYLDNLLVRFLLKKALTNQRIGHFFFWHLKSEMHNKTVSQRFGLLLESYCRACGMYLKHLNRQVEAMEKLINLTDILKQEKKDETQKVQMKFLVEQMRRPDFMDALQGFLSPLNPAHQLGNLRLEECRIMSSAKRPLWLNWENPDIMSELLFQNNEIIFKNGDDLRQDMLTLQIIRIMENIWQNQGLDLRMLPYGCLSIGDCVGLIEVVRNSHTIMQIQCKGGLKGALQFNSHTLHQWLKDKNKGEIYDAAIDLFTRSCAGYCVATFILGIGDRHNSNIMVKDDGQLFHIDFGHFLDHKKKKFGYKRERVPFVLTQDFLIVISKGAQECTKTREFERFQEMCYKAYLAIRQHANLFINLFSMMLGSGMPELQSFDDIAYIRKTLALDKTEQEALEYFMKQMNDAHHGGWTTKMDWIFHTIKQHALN
- Sequence (P27986 whole entry partner): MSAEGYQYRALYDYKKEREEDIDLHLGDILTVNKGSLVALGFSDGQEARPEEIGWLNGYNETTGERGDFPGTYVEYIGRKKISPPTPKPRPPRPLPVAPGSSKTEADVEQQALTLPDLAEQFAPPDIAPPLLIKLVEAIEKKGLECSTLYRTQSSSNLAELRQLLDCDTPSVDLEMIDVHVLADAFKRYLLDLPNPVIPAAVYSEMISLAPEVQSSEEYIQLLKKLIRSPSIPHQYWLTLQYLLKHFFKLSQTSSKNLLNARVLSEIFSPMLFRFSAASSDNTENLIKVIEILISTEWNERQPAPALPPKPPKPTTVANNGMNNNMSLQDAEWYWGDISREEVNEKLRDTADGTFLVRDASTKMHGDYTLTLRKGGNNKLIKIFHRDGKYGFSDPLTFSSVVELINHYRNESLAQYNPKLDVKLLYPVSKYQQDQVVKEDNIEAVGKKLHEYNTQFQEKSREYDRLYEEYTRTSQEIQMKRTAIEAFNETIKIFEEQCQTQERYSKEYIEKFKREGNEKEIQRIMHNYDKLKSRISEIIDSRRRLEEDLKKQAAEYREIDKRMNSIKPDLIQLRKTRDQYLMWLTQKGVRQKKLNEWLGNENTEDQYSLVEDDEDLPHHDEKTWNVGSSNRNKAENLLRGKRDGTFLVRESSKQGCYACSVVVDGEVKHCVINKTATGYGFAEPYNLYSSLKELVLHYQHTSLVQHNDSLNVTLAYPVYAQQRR
- test.details: PI3Kα enzyme assay (ADP-Glo kinase assay)
- Type: biochemical
- condition.info: IC50 class; 3 nM PI3Kα, 50 μM PIP2, 100 μM ATP; read-out: PI3Kα Inhibitory Activity
- Experimental: Evaluation of the PI3Kα inhibitory activity of the compound of the present invention was carried out according to the method as described below. […] For the measurement of luminescence intensity, EnVision (PerkinElmer, Inc.) was used. The inhibitory activity of the compounds was evaluated using an IC50 (50% inhibitory concentration). The IC50 was calculated using XLfit (IDBS).
pIC50: −log10 of the molar value.
result.type: pIC50

[[record]]
smiles_notation = "COCCOc1cc(-c2cnc3ccc(NC(=O)NC4CCCC4)nc3c2)ccc1O"
result = "6.00 to 7.00"

[[record]]
smiles_notation = "O=C(NCCCN1CCOCC1)Nc1ccc2ncc(-c3cn[nH]c3)cc2n1"
result = "5.00 to 6.00"

[[record]]
smiles_notation = "O=C(Nc1ccc2ncc(-c3c[nH]nc3CO)cc2n1)NC1CCCC1"
result = "> 7.00"

[[record]]
smiles_notation = "O=C(NCCCCCc1ccccc1)Nc1ccc2ncc(-c3cn[nH]c3)cc2n1"
result = "6.00 to 7.00"

